Target: Jak2 (UniProt O60674)
Sequence (O60674 whole entry, looked up): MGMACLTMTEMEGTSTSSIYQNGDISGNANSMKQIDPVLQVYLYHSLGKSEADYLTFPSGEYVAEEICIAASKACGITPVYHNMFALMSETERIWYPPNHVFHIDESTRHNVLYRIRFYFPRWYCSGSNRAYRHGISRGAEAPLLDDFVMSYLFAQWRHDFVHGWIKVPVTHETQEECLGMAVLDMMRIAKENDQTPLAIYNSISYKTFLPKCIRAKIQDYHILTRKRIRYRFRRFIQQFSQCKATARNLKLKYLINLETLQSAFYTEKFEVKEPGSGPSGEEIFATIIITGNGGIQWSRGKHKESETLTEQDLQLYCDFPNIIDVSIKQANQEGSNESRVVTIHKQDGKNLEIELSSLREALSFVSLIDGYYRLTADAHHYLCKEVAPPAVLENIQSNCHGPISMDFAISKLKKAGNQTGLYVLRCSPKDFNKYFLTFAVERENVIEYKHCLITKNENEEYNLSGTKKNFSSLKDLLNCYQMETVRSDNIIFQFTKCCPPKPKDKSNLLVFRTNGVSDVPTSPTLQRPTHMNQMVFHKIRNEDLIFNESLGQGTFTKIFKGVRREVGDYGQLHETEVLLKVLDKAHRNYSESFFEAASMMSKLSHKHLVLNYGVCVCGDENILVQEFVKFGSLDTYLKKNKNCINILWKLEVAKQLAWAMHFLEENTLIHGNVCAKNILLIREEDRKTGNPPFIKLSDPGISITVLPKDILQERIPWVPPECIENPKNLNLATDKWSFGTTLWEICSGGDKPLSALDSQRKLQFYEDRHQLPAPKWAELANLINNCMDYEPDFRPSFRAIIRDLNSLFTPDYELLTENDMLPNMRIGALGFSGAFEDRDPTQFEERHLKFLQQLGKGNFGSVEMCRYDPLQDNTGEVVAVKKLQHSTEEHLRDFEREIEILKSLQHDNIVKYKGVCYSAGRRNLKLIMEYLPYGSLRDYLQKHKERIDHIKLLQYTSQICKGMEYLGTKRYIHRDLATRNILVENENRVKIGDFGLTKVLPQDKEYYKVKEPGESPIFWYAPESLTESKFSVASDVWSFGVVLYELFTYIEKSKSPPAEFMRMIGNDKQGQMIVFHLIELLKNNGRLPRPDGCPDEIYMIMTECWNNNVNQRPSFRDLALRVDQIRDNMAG
Assay: phosphorylation enrichment, bacterial display (enrichment ratio); higher = better substrate or ligand; peptides without Tyr show the background;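 also: 11-residue human phosphosite peptides and single-mutation variants displayed on the E. coli surface, counted by deep sequencing, each peptide's frequency after selection divided by its frequency in the unselected input library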;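 also: frequency after pTyr selection over input frequency; kinase dosed for 20-30% of maximal phosphorylation in three min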
Listed here: items and their measured phosphorylation enrichment.

For TEGNEYVFRVA the sequence record lists phosphorylation enrichment as 0.949

For RTTKTYFPHFD [HBA1_Y43_P38R] the sequence record lists phosphorylation enrichment as 2.09

For FSTDCYRVGGH [NTRK2_Y707_Y706C_YF] the sequence record lists phosphorylation enrichment as 1.05

For GVMLLYYGRYN [ADGRD1_Y85_T82M] the sequence record lists phosphorylation enrichment as 1.34

For FDGKEYDPVEA [MAPRE2_Y167_YF] the sequence record lists phosphorylation enrichment as 1.2

For CASQLCPRHKH [DCTN4_Y263_Y263C] the sequence record lists phosphorylation enrichment as 0.495

For DFPMGYPSYLA [TBCK_Y153_I151M] the sequence record lists phosphorylation enrichment as 0.663

For GFILMYDITNK [RAB3C_Y110_E115K] the sequence record lists phosphorylation enrichment as 1.83

For DQIDTYELSGG [DNM1_Y354] the sequence record lists phosphorylation enrichment as 0.866

For YPPDGYSRHYE [CTNND1_Y213] the sequence record lists phosphorylation enrichment as 0.534

For MGGSLYFSYPD [HIKESHI_Y55_V54L] the sequence record lists phosphorylation enrichment as 2.11

For NRVEIYEKTVE [CYFIP1_Y108] the sequence record lists phosphorylation enrichment as 1.27

For LRRREYQRQDY [PRKRIP1_Y90] the sequence record lists phosphorylation enrichment as 0.289

For VQVAFYTVMMN [SPATA17_Y84_M86V_YF] the sequence record lists phosphorylation enrichment as 1.36

For SSSGAYGGGFG [KRT19_Y61_YF] the sequence record lists phosphorylation enrichment as 0.595

For PGAGHYEDTIL [ALK_Y1604] the sequence record lists phosphorylation enrichment as 0.896

For EAEALYQTKFQ [KRT73_Y325] the sequence record lists phosphorylation enrichment as 0.976

For TTPYNYSYIFK [RAB14_Y8_A4T] the sequence record lists phosphorylation enrichment as 0.655

For ALECLYHREKR [TEKT5_Y195] the sequence record lists phosphorylation enrichment as 0.884

For GLDGSYLPRDS [SH2D1A_Y29_L31P] the sequence record lists phosphorylation enrichment as 0.534

For SHTPSYCDEWL [RITA1_Y109_S113W] the sequence record lists phosphorylation enrichment as 0.97

For IHFAIYLLKFS [ARMC9_Y107_YF] the sequence record lists phosphorylation enrichment as 1.03

For LFPANYVAPMT [GRAP2_Y324] the sequence record lists phosphorylation enrichment as 0.649

For RNYGTYTAGLS [RHBDD1_Y264_D262G] the sequence record lists phosphorylation enrichment as 0.74

For IHRWVYPLTPE [EIF2B5_Y319_R315H] the sequence record lists phosphorylation enrichment as 0.885

For AKIDGYIISYR the sequence record lists phosphorylation enrichment as 0.966

----------
Target: Fes (UniProt P07332)
Sequence (P07332 whole entry, looked up): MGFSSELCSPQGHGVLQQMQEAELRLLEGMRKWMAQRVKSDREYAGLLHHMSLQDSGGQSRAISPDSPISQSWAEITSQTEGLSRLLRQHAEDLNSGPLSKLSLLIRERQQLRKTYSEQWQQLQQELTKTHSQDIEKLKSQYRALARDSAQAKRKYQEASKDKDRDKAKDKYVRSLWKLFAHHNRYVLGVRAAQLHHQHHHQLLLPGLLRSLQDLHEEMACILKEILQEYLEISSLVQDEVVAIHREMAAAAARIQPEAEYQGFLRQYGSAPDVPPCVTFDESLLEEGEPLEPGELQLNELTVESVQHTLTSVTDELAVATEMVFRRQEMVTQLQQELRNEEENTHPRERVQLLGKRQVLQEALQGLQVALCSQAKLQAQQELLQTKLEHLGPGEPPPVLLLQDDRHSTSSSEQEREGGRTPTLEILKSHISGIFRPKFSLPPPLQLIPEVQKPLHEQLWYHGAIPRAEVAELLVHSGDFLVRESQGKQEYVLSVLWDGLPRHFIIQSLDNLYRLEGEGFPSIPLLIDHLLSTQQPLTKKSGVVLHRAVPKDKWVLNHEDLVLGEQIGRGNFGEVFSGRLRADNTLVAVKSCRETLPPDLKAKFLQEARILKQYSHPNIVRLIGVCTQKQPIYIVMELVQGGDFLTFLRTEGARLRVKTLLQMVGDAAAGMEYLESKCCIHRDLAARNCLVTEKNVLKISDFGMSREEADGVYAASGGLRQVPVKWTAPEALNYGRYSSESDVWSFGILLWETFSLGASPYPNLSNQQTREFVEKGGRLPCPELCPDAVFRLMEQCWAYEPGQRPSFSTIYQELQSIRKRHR
Assay: phosphorylation enrichment, bacterial display (enrichment ratio); higher = better substrate or ligand; peptides without Tyr show the background
Record Y whenever phosphorylation enrichment is at 1 or higher; record N when lower.

Answered examples (6):
{"Sequence String": "SYKNKYGMVAQ [APOB_Y276]", "Answer Label": "N"}
{"Sequence String": "LKTNCYNNGKD [DNMT3B_Y404]", "Answer Label": "Y"}
{"Sequence String": "VNFDFYTVNLG [GFPT1_Y367_D366Y_YF]", "Answer Label": "Y"}
{"Sequence String": "PTDSVYVMPTV [MYO7A_Y1668]", "Answer Label": "N"}
{"Sequence String": "IGEGTYRTVFK [CDK5_Y15_G16R]", "Answer Label": "N"}
{"Sequence String": "DGMADCSDPSF [CDC5L_Y459_Y459C_YF]", "Answer Label": "Y"}

Q: Hello, I need to know if PATINYPFEKG [NDUFS8_Y84] has measured phosphorylation enrichment not below 1. Thanks!
Ans: Y

Q: Hello, I need to know if LTTEVYFPSIK [C5orf64_Y60_A57T] has measured phosphorylation enrichment not below 1. Thanks!
Ans: N

Q: Hello, I need to know if RGRSTYYWPRP [GAGE12J_Y9] has measured phosphorylation enrichment not below 1. Thanks!
Ans: N

Q: Hello, I need to know if DFPMGYPSYLA [TBCK_Y153_I151M] has measured phosphorylation enrichment not below 1. Thanks!
Ans: N

Q: Hello, I need to know if RLLRGYDQLAF [HLA-C_Y137_S140L_YF] has measured phosphorylation enrichment not below 1. Thanks!
Ans: N

Q: Hello, I need to know if PVADPYDQSFE [MAPK14_Y323] has measured phosphorylation enrichment not below 1. Thanks!
Ans: Y

Value source: the supplement of paper PMC10065799
